tested on: SN12K1 renal; assay: NCI tumour cell line growth inhibition, 48 h
Field: TGI. Provide a value for each of the molecules that follow.
Numbers only, in nM.

INSERT INTO measurements (molecule, experimental_endpoint, reported_measurement) VALUES
  ('CC[C@]1(O)C[C@H]2CN(CCc3c([nH]c4ccccc34)[C@@](C(=O)OC)(c3cc4c(cc3OC)N(C)[C@H]3[C@@](O)(C(=O)OC)[C@H](OC(C)=O)[C@]5(CC)C=CCN6CC[C@]43[C@@H]65)C2)C1', 'TGI', 2.7);

Attention now shifts to the item below.
Lookup: Query (molecule): COc1cc(C2c3cc4c(cc3[C@@H](Nc3ccc([N+](=O)[O-])cc3)C3COC(=O)[C@H]23)OCO4)cc(OC)c1O (stereo not given in full) ; field requested: TGI
Found: 2880

----------
test system: CAKI-1 renal; experiment: NCI tumour cell line growth inhibition, 48 h
Field: TGI. Provide a value for each of the compounds that follow.
Give bare numbers, in µM.

Here are 2 compounds together with their reported answers.
INSERT INTO results (test_smiles, experimental_endpoint, reported_measurement) VALUES
  ('COCCNCc1ccc(-c2cc3nccc(Oc4ccc(NC(=O)C5(C(=O)Nc6ccc(F)cc6)CC5)cc4F)c3s2)nc1', 'TGI', 4.83),
  ('C=CC(=O)Nc1ccccc1CC(c1c[nH]c2ccccc12)c1c[nH]c2ccccc12', 'TGI', 37.7);

Please give TGI for each item listed below.
1. COc1cc2c3c(n(CCN4CCOCC4)c(=O)c2cc1OC)-c1ccccc1C3=O
2. O=C1C(Cl)=C(Cl)C(=O)N1c1ccc(F)cc1
3. CSc1ncc2c(C#N)c3[nH]c4ccccc4n3c(=O)c2n1

Found:
72.9
21
78.4

Lookup: Query (compound): Cc1ccc(N=Nc2c(O)ccc3n[nH]nc23)cc1 ; field requested: TGI
Found: 38.9

----------
test system: MDA-MB-435
Select the correct class. Options are class 1 (active), class 0 (inactive) and nothing else.

// known answers, use as guide
INSERT INTO measurements (molecule, category) VALUES
  ('Cc1ccc(-c2c3c(nn2-c2ccc(S(=O)(=O)NC(=O)NC4CCCCC4)cc2)-c2ccccc2C3)cc1', 'class 0'),
  ('c1cc(C2CCCCC2)ccc1-c1cnc2nonc2n1', 'class 1'),
  ('COc1cc2c(NC3CCN(C(C)C)CC3)nc(C3CCCCC3)nc2cc1OCCCN1CCCC1', 'class 0'),
  ('CCCCSc1nc(N)c2cn[nH]c2n1', 'class 0'),
  ('C=CCC(N[C@H](CO)c1ccccc1)c1ccccn1 (stereo not given in full)', 'class 0'),
  ('O=C(N=Nc1c(Cl)c(O)c2ccccc2c1O)C(=O)Nc1cccc(C(F)(F)F)c1', 'class 0');

Lookup: Outcome logged for O=C(NCc1ccco1)C1CCN(S(=O)(=O)c2ccc(Cl)cc2)CC1 in this assay:
Found: class 0

Lookup: Outcome logged for C#CCOc1cccc(Nc2ncnc3cc(NC(=O)C=C)ccc23)c1 in this assay:
Found: class 0

Lookup: Outcome logged for O=C(CSC(c1ccccc1)c1ccccc1)N/N=C/c1ccccc1Cl in this assay:
Found: class 0

Lookup: Outcome logged for Cc1cc2c3c([n+](C)c4ccc(F)cc4c3c1)-c1cc(F)ccc1N2C in this assay:
Found: class 0

----------
tested on: KM12 colon; assay: NCI tumour cell line growth inhibition, 48 h
Field: TGI. Provide a value for each of the compounds that follow.

Here are 9 compounds together with their reported answers.
INSERT INTO measurements (compound, reported_measurement) VALUES
  ('CCOC(=O)[C@@H]1ON2O[C@@H](OC3CCCCC3c3ccccc3)C[C@H]3OC(=O)[C@@H]1C32 (stereo not given in full)', '> 100 µM'),
  ('O=C(O/N=c1/ccc(=O)/c(=N\OC(=O)c2ccccc2)c1=O)c1ccccc1', '> 100 µM'),
  ('COc1cccc2c(SCC(=O)Nc3ccccc3-c3ccccc3NC(=O)CSc3c4ccccc4nc4c(OC)cccc34)c3ccccc3nc12', '> 100 µM'),
  ('c1ccc2c(c1)SP1Sc3ccccc3P21 (stereo not given)', '> 100 µM'),
  ('Cc1cc(N(CCC#N)CCC#N)ccc1/C=C(\NC(=O)/C=C/c1ccccc1)C(=O)Nc1ccc(Cl)cc1', '> 94 µM'),
  ('CCCS(=O)c1nc(COC(=O)NC)c(COC(=O)NC)n1C (stereo not given)', '> 100 µM'),
  ('CCOC(=O)c1c(N2CCOCC2)ncn(-c2cccc(Cl)c2)c1=O', '> 100 µM'),
  ('C=C(C)C1CCC2=CC(CC3(C)OC3C3=CC(C(=O)OC)=C(C1)O3)OC2=O (stereo not given)', '> 100 µM'),
  ('CC1=NN(c2cccc(Cl)c2)C(=O)/C1=C\C=C\c1ccccc1', '3.1 µM');

Attention now shifts to the item below.
Lookup: Query (compound): CN(C)N=Nc1cccc(C(N)=O)c1 ; field requested: TGI
Found: > 100 µM

----------
Field: TGI. Provide a value for each of the compounds that follow.
tested on: NCI/ADR-RES ovarian; test: NCI tumour cell line growth inhibition, 48 h
Numbers only, in µM.

INSERT INTO results (test_smiles, reported_measurement) VALUES
  ('Cc1nc2c(O)c3c(c(O)c2nc1C)C1C=CC3CC1', 18.5);

Please give TGI for each item listed below.
1. Cc1nn(Cc2ccccc2)cc1C(=O)Nc1sc2c(c1C(N)=O)CCC(=O)C2
2. O=[N+]([O-])C(C(Cl)=C(Cl)Cl)=C(n1nnc2ccccc21)n1nnc2ccccc21
3. NNC(=O)c1cc([N+](=O)[O-])ccc1NC(=O)C12CC3CC(CC(C3)C1)C2

Found:
[10.1, 55.9, 49.2]

----------
system: CAKI-1 renal; assay: NCI tumour cell line growth inhibition, 48 h
Experimental Endpoint: TGI

INSERT INTO measurements (molecule, target_under_test, reported_measurement) VALUES
  ('c1ccc2c(c1)SCCc1cn[nH]c1-2', 'CAKI-1 renal', '> 100 µM'),
  ('O=C(NCCCl)Nc1ccccc1', 'CAKI-1 renal', '> 100 µM'),
  ('COC(=O)C12C34C=CC5(CCC6(C=CC1(CC3)O6)C52C(=O)OC)O4 (stereo not given)', 'CAKI-1 renal', '> 100 µM');

Please give TGI for each item listed below.
1. O=C(Sc1n[nH]c(=O)[nH]c1=O)c1cccc2nc3ccccc3nc12
2. O=C(N/N=C/c1cc(Cl)ccc1O)c1ccccc1Nc1ccnc(C(F)(F)F)c1

Found:
> 100 µM
3.87 µM

Please give TGI for each item listed below.
1. CC(=O)[CH-]C(=O)c1ccccc1.CC(=O)[CH-]C(=O)c1ccccc1.CC[C@H](/C=C/C(C)[C@H]1CCC2[C@@H]3CC=C4C[C@@H]([O-])CC[C@]4(C)C3CC[C@@]21C)C(C)C.CC[C@H](/C=C/C(C)[C@H]1CCC2[C@@H]3CC=C4C[C@@H]([O-])CC[C@]4(C)C3CC[C@@]21C)C(C)C.Cl.[Ti+4] (stereo not given in full)
2. CCCCCCc1cc2cc(-c3cn4c(n3)sc3ccccc34)c(=O)oc2cc1O
3. COC(=O)CSc1nc2[nH]c(SC)c(C(N)=O)c2c(=O)n1-c1ccccc1
4. CC1=NN(C(=O)CC(=O)NC(=O)/C=C\c2ccccc2)C(=O)C1N=Nc1ccc([N+](=O)[O-])cc1 (stereo not given)
5. CCCS(=O)c1nc(COC(=O)NC)c(COC(=O)NC)n1C (stereo not given)

Found:
1: > 25 µM; 2: > 100 µM; 3: > 10 µM; 4: > 100 µM; 5: > 100 µM

----------
test system: HOP-92 NSCLC; experiment: NCI tumour cell line growth inhibition, 48 h; in the data active = GI50 below about 0.43 µM; inactive = the rest
Select the correct class. Options are active, inactive and nothing else.

INSERT INTO measurements (compound, category) VALUES
  ('Cc1nc2sc(C(=O)Nc3ccccc3)c(N)c2cc1C(O)c1ccccc1 (centres undefined)', 'inactive'),
  ('c1cc(C2CCCCC2)ccc1-c1cnc2nonc2n1', 'active'),
  ('O=C(CSC(c1ccccc1)c1ccccc1)N/N=C/c1ccccc1Cl', 'inactive');

From here, focus on the item given below.
Lookup: Outcome logged for O=C(N/N=C/c1cc(Cl)ccc1O)c1ccccc1Nc1ccnc(C(F)(F)F)c1 in this assay:
Found: inactive

----------
tested on: HT29 colon; assay: NCI tumour cell line growth inhibition, 48 h
Experimental Endpoint: TGI (µM)
Numbers only, in µM.

INSERT INTO assay_data (test_smiles, output_unit, reported_measurement) VALUES
  ('CC(=O)O[C@H]1CC[C@H]2[C@@H]3CCC4=C/C(=N/OCCN(C)C)CC[C@]4(C)[C@H]3CC[C@]12C', 'µM', 6.8);

Lookup: Query (molecule): COc1ccc2cc(CN3CCC(C4CCN(Cc5ccc6cc(OC)ccc6c5)CC4)CC3)ccc2c1 ; field requested: TGI
Found: 6.64
